# Assayed target: human mesothelin (MSLN) (human) (UniProt Q13421)
# Procedure summary: BLI (Octet), bsAb in 1+1 Fab-scFv-Fc format
Quantity kind: Response
// print number alone

The recorded Response for entry XENP32560 (bispecific antibody, part only; not given: anti-CD3 scFv-Fc arm, constant regions, V domains shown, not shown: another chain or arm of the molecule; a dimerising Fc or GST; small tags and cut ends) VH: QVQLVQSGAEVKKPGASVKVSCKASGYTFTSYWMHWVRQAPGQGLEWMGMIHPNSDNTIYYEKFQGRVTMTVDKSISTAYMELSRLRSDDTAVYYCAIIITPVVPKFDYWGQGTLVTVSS VL: DIVMTQSPDSLAVSLGERATINCKASQDVGTSVAWYQQKPGQSPKLLIYWASTRHTGVPDRFTGSGSGTDFTLTISSLQAEDVAVYFCQQYSSYPLTFGAGTKLEIK equals 1.03

// Response lookup, binder = XENP32555 (bispecific antibody, part only; not given: anti-CD3 scFv-Fc arm, constant regions, V domains shown, not shown: another chain or arm of the molecule; a dimerising Fc or GST; small tags and cut ends) VH: QVQLVQSGAEVKKPGASVKVSCKASGYTFTSYWMHWVRQAPGQGLEWMGMIHPNSGNTIYYEKFQGRVTMTVDKSISTAYMELSRLRSDDTAVYYCAIIITPVVPKFDYWGQGTLVTVSS VL: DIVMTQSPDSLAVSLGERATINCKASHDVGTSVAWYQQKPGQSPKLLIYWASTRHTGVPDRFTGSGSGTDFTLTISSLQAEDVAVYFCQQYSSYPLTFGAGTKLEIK , result: 1.23

Input XENP32564 (bispecific antibody, part only; not given: anti-CD3 scFv-Fc arm, constant regions, V domains shown, not shown: another chain or arm of the molecule; a dimerising Fc or GST; small tags and cut ends) VH: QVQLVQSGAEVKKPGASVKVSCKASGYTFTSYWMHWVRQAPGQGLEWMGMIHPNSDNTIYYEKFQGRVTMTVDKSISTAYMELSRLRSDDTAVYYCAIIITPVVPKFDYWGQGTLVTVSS VL: DIVMTQSPDSLAVSLGERATINCKASHDVGTSLAWYQQKPGQSPKLLIYWASTRHTGVPDRFTGSGSGTDFTLTISSLQAEDVAVYFCQQYSSYPLTFGAGTKLEIK . Output Response: 0.952
